All values here come from PubChem BioAssay (NCI).

Tested on: MOLT-4 leukemia
Assay: NCI tumour cell line growth inhibition, 48 h; in the data active = GI50 below about 0.43 µM; inactive = the rest
Your reply should match one of these outcome classes. active, inactive

// below: answered molecules
COc1cc(-c2nc(-c3ccc(-c4nc5ccc(F)cc5[nH]4)cc3)no2)cc(OC)c1OC	inactive
Cc1ccc2nc3c(n2c1)C(=O)C(=O)c1ccccc1-3	inactive
OCCn1cc(-c2cnc3nnn(Cc4ccc5ncccc5c4)c3n2)cn1	inactive
COc1cc(/C(=C2/O[C@@H]([C@H]3COC(C)(C)O3)[C@H]3OC(C)(C)O[C@@H]23)c2ccc3c(c2)OCO3)cc(OC)c1OC	inactive
COc1ccc2c(c1)[nH]c(=O)c1c3cc(OC)c(OC)cc3cn21	active

[ask] Would you mind telling me which call this test gave C[C@@H](Oc1cc(-n2cnc3ccc(OCC4CCN(C)CC4)cc32)sc1C(N)=O)c1ccccc1Cl ?
[reply] active

[ask] Would you mind telling me which call this test gave COc1ccc(/C=N\NC(=O)c2ccc3nc(-c4ccc(Cl)cc4)[nH]c3c2)cc1 ?
[reply] inactive

[ask] Would you mind telling me which call this test gave CN(C)c1ccc(Nc2c3ccccc3nc3cc(NC(=O)CCN4CCCC4)ccc23)cc1 ?
[reply] active

[ask] Would you mind telling me which call this test gave Cc1ccc(-c2cc(-c3ccc(C)cc3)nc(N3CCN(CCNc4ccnc5cc(Cl)ccc45)CC3)n2)cc1 ?
[reply] inactive

* * *

System: UO-31 renal
Assay: NCI tumour cell line growth inhibition, 48 h
ASSAY READOUT: TGI

Answered cases to consult:
CCOC(=O)C(=O)Nc1ccccc1OCC	> 100 µM
CCOC(=O)c1ccc(N(C=O)CCC(=O)CCl)cc1	1.98 µM

[ask] Requested field: TGI. Item: O=c1ccn(C2(CO)C=C(CO)C(O)C2O)c(=O)[nH]1 (stereo not given)
[reply] > 25.7 µM

* * *

Catalogue of GI50 readings, one per entry.
Test system: OVCAR-4 ovarian
Assay: NCI tumour cell line growth inhibition, 48 h

[ask] Requested field: GI50. Item: O=C(Nc1ccc(Nc2ccncc2)cc1)c1ccc(Nc2ccnc3ccc([N+](=O)[O-])cc23)cc1[N+](=O)[O-]
[reply] 6.01 µM

[ask] Requested field: GI50. Item: O=C(Cc1ccc(Nc2ccnc(C(F)(F)F)c2)cc1)Nc1cc(Cl)ccc1O
[reply] 9.48 µM

[ask] Requested field: GI50. Item: Cc1ccc2nc3c(n2c1)C(=O)C(=O)c1ccccc1-3
[reply] 0.21 µM

[ask] Requested field: GI50. Item: COc1ccc(-n2cc(-c3cc(OC)c(OC)c(OC)c3)[nH]c2=S)cc1Cl
[reply] 27.2 µM

[ask] Requested field: GI50. Item: O=c1c2c(=NCCN3CCCC3)cc3c(=O)n(CCCN4CCOCC4)c(=O)c4ccc(c(O)n1CCCN1CCOCC1)c2c4-3
[reply] 0.13 µM

* * *

Test system: SK-OV-3 ovarian
Assay: NCI tumour cell line growth inhibition, 48 h; in the data active means GI50 below about 0.43 µM; inactive means the rest
Your reply should match one of these outcome classes. active, inactive

CN(C)c1ccc(Nc2c3ccccc3nc3cc(NC(=O)CCN4CCCC4)ccc23)cc1	active
Nc1nccc2c1ccn2-c1cccc(NC(=O)c2ccc(N3CCOCC3)c(C(F)(F)F)c2)c1	inactive
Oc1ccc(Oc2cnc3cc(Cl)ccc3n2)cc1	inactive
CC[C@H](C)[C@H](NC(=O)NC(C)(C)C)C(=O)N(C)[C@H](C[C@@H](OC(C)=O)c1nc(C(=O)N[C@@H](Cc2ccccc2)C[C@H](C)C(=O)OC)cs1)C(C)C	inactive
Cc1ccc2nc3c(n2c1)C(=O)C(=O)c1ccccc1-3	inactive

Consider the record given below.
[ask] Would you mind telling me which call this test gave COc1cc(/C(=C2/O[C@@H]([C@H]3COC(C)(C)O3)[C@H]3OC(C)(C)O[C@@H]23)c2ccc3c(c2)OCO3)cc(OC)c1OC ?
[reply] inactive
